system: H1755 cells; experiment: Cellular phospho-ERK inhibition assay in H1755 cells; type: cell-based; details: Homo sapiens, NCI-H1755, 2 hours treatment, read-out: H1755 Cell IC50
Where a name gives a salt, the structure may show the parent alone.

{"compound": "Cn1cnc2ccc(Oc3c(F)ccc(NS(=O)(=O)N4C[C@@H](F)[C@@H](F)C4)c3Cl)c(F)c2c1=O", "IC50 [nM]": 64}
{"compound": "Cn1cnc2ccc(Nc3cc(Cl)cc(NS(=O)(=O)N4CC[C@@H](F)C4)c3F)c(Cl)c2c1=O [Example 56, trifluoroacetate]", "IC50 [nM]": 23}
{"compound": "CO[C@@H]1CCN(S(=O)(=O)Nc2cc(F)c(F)c(Nc3ccc4ncn(C)c(=O)c4c3Cl)c2Cl)C1 [Example 32, trifluoroacetate]", "IC50 [nM]": 83}
{"compound": "Cn1cnc2ccc(Nc3c(F)c(F)cc(NS(=O)(=O)N4CCCC4)c3F)c(Cl)c2c1=O [Example 43, trifluoroacetate]", "IC50 [nM]": 45}
{"compound": "Cn1cnc2ccc(Oc3c(F)ccc(NS(=O)(=O)N4CC[C@@H](OC(F)F)C4)c3Cl)c(F)c2c1=O", "IC50 [nM]": 44}
{"compound": "Cn1cnc2ccc(Nc3c(F)c(F)cc(NS(=O)(=O)N4CC[C@@H](F)C4)c3Cl)c(F)c2c1=O [Example 46, trifluoroacetate]", "IC50 [nM]": 103}
{"compound": "COCC1CN(S(=O)(=O)Nc2ccc(F)c(Nc3ccc4ncn(C)c(=O)c4c3Cl)c2Cl)C1 [Example 132, trifluoroacetate]", "IC50 [nM]": 33}
{"compound": "Cc1c(Nc2c(F)ccc(NS(=O)(=O)N3CC(F)C3)c2Cl)ccc2ncn(C)c(=O)c12", "IC50 [nM]": 1010}
{"compound": "COC1CN(S(=O)(=O)Nc2ccc(F)c(Nc3ccc4ncn(C)c(=O)c4c3C)c2Cl)C1 [Example 128, trifluoroacetate]", "IC50 [nM]": 128}
{"compound": "CO[C@@H]1CN(S(=O)(=O)Nc2ccc(F)c(Nc3ccc4ncn(C)c(=O)c4c3Cl)c2Cl)C[C@@H]1F (relative stereo)", "IC50 [nM]": 18}
{"compound": "Cn1cnc2ccc(Nc3c(F)c(F)cc(NS(=O)(=O)N4CC[C@@H](F)C4)c3Cl)c(Cl)c2c1=O [Example 33, trifluoroacetate]", "IC50 [nM]": 84}
{"compound": "Cc1c(Nc2c(F)ccc(NS(=O)(=O)N3CC[C@H](F)C3)c2Cl)ccc2ncn(C)c(=O)c12 [Example 86, trifluoroacetate]", "IC50 [nM]": 182}
{"compound": "Cn1cnc2ccc(Nc3c(F)ccc(NS(=O)(=O)N4CC[C@@H](F)C4)c3Cl)c(Cl)c2c1=O", "IC50 [nM]": 39}
{"compound": "Cn1cnc2ccc(Nc3c(F)ccc(NS(=O)(=O)N4CC[C@H](F)C4)c3Cl)c(F)c2c1=O [Example 27, trifluoroacetate]", "IC50 [nM]": 27}
{"compound": "Cc1c(Nc2c(F)ccc(NS(=O)(=O)N(C)C)c2Cl)ccc2ncn(C)c(=O)c12", "IC50 [nM]": 161}
{"compound": "Cn1cnc2ccc(Oc3c(F)ccc(NS(=O)(=O)N4CC[C@@H](OC(F)F)C4)c3Cl)c(Cl)c2c1=O", "IC50 [nM]": 61}
{"compound": "COC1CN(S(=O)(=O)Nc2ccc(F)c(Nc3ccc4ncn(C)c(=O)c4c3F)c2Cl)C1", "IC50 [nM]": 38}
{"compound": "Cn1cnc2ccc(Nc3c(F)ccc(NS(=O)(=O)N4CC[C@H](F)C4)c3Cl)c(Cl)c2c1=O", "IC50 [nM]": 38}
{"compound": "Cc1c(Nc2cc(F)cc(NS(=O)(=O)N3CC[C@@H](F)C3)c2Cl)ccc2ncn(C)c(=O)c12", "IC50 [nM]": 538}
{"compound": "[2H]C([2H])([2H])O[C@@H]1CCN(S(=O)(=O)Nc2ccc(F)c(Nc3ccc4ncn(C)c(=O)c4c3Cl)c2Cl)C1 [Example 53, trifluoroacetate]", "IC50 [nM]": 25}
{"compound": "Cn1cnc2ccc(Nc3c(F)ccc(NS(=O)(=O)N4CC5CC5C4)c3Cl)c(Cl)c2c1=O (stereo not drawn)", "IC50 [nM]": 80}
{"compound": "Cn1cnc2ccc(Oc3c(F)ccc(NS(=O)(=O)N4CC[C@@H](F)C4)c3Cl)c(Cl)c2c1=O", "IC50 [nM]": 27}
{"compound": "CO[C@@H]1CCN(S(=O)(=O)Nc2ccc(F)c(Oc3ccc4ncn(C)c(=O)c4c3F)c2Cl)C1 [Example 48, trifluoroacetate]", "IC50 [nM]": 36}
{"compound": "Cn1cnc2ccc(Nc3c(F)ccc(NS(=O)(=O)N4CC(COC(F)F)C4)c3Cl)c(Cl)c2c1=O [Example 138, trifluoroacetate]", "IC50 [nM]": 26}
{"compound": "Cc1c(Nc2c(F)ccc(NS(=O)(=O)N3CC4CC3C4)c2Cl)ccc2ncn(C)c(=O)c12 [Example 87, trifluoroacetate]", "IC50 [nM]": 215}
{"compound": "COCC1CN(S(=O)(=O)Nc2ccc(F)c(Nc3ccc4ncn(C)c(=O)c4c3C)c2Cl)C1", "IC50 [nM]": 38}
{"compound": "Cn1cnc2ccc(Oc3c(F)ccc(NS(=O)(=O)N4CC[C@@H](F)C4)c3Cl)c(F)c2c1=O", "IC50 [nM]": 29}

###

target: full-length FLAG-tagged B-Raf(V600E) (Homo sapiens (Human), UniProt P15056, V600E); assay: BRAF V600E enzyme assay (TR-FRET competitive displacement); assay type: binding; conditions: averaged IC50; TR-FRET tracer displacement, 60 min
Sequence (P15056 whole entry V600E): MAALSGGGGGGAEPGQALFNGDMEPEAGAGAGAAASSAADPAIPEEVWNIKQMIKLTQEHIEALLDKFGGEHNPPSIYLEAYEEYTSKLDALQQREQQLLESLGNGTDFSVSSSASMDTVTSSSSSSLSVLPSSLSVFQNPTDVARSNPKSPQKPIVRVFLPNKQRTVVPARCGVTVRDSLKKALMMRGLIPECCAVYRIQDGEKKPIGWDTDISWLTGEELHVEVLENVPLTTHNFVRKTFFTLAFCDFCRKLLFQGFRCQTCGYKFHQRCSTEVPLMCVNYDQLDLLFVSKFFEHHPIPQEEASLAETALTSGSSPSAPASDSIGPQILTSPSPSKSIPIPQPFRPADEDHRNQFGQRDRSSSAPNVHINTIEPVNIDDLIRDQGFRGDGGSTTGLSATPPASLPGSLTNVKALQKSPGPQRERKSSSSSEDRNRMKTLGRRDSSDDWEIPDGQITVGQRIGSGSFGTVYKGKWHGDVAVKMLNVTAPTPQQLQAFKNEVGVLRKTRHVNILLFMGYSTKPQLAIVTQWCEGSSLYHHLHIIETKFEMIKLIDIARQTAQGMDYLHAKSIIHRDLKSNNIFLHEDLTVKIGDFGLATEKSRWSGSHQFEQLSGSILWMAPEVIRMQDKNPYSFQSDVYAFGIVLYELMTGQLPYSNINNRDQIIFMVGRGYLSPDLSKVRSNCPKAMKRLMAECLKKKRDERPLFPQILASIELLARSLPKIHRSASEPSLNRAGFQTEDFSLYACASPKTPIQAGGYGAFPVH
Counter-ions that a name gives are not always drawn.
Rule for this label: t means IC50 is less than 10 nM; f means IC50 is at least 10 nM.

{"compound": "Cc1c(Nc2c(F)ccc(NS(=O)(=O)N3CC(OC(F)F)C3)c2Cl)ccc2ncn(C)c(=O)c12", "discrete.label": "f"}
{"compound": "Cn1cnc2ccc(Nc3c(F)ccc(NS(=O)(=O)N4CCCC4)c3Cl)c(C#N)c2c1=O [Example 50, trifluoroacetate]", "discrete.label": "t"}
{"compound": "COC1CN(S(=O)(=O)Nc2ccc(F)c(Oc3ccc4ncn(C)c(=O)c4c3F)c2Cl)C1", "discrete.label": "t"}
{"compound": "Cn1cnc2ccc(Nc3c(F)c(F)cc(NS(=O)(=O)N4CCCC4)c3F)c(Cl)c2c1=O [Example 43, trifluoroacetate]", "discrete.label": "t"}
{"compound": "Cc1c(Nc2c(F)ccc(NS(=O)(=O)N3CC4CC3C4)c2Cl)ccc2ncn(C)c(=O)c12 [Example 87, trifluoroacetate]", "discrete.label": "f"}
{"compound": "Cn1cnc2ccc(Nc3cc(Cl)cc(NS(=O)(=O)N4CC[C@@H](F)C4)c3F)c(F)c2c1=O [Example 58, trifluoroacetate]", "discrete.label": "t"}
{"compound": "CC[C@@H]1CCN(S(=O)(=O)Nc2ccc(F)c(Nc3ccc4ncn(C)c(=O)c4c3Cl)c2Cl)C1 [Example 106, trifluoroacetate]", "discrete.label": "f"}
{"compound": "Cn1cnc2ccc(Nc3c(F)ccc(NS(=O)(=O)N4C[C@@H](F)[C@@H](F)C4)c3Cl)c(F)c2c1=O", "discrete.label": "t"}
{"compound": "Cc1c(Oc2c(F)ccc(NS(=O)(=O)N3CC4CC4C3)c2Cl)ccc2ncn(C)c(=O)c12 (stereo not drawn)", "discrete.label": "t"}
{"compound": "Cn1cnc2ccc(Nc3c(F)ccc(NS(=O)(=O)N4CCC(F)(F)C4)c3Cl)c(Cl)c2c1=O [Example 25, trifluoroacetate]", "discrete.label": "t"}
{"compound": "CO[C@@H]1CCN(S(=O)(=O)Nc2ccc(F)c(Oc3ccc4ncn(C)c(=O)c4c3C)c2Cl)C1", "discrete.label": "t"}
{"compound": "Cn1cnc2ccc(Nc3c(F)ccc(NS(=O)(=O)N4CCCC4)c3Cl)c(F)c2c1=O [Example 7, trifluoroacetate]", "discrete.label": "f"}
{"compound": "CCN(C)S(=O)(=O)Nc1ccc(F)c(Oc2ccc3ncn(C)c(=O)c3c2Cl)c1Cl", "discrete.label": "t"}
{"compound": "COC1CN(S(=O)(=O)Nc2ccc(F)c(Nc3ccc4ncn(C)c(=O)c4c3F)c2Cl)C1", "discrete.label": "f"}

###

# efflux ratio at 2 h, 1 µM annotations
target: P-gp (MDR1) (Homo sapiens (Human), UniProt P08183); assay: MDR1 LLC-PK1 permeability assay: efflux ratio; format: in vitro ADME; conditions: pig
Sequence (P08183 whole entry, species assumed): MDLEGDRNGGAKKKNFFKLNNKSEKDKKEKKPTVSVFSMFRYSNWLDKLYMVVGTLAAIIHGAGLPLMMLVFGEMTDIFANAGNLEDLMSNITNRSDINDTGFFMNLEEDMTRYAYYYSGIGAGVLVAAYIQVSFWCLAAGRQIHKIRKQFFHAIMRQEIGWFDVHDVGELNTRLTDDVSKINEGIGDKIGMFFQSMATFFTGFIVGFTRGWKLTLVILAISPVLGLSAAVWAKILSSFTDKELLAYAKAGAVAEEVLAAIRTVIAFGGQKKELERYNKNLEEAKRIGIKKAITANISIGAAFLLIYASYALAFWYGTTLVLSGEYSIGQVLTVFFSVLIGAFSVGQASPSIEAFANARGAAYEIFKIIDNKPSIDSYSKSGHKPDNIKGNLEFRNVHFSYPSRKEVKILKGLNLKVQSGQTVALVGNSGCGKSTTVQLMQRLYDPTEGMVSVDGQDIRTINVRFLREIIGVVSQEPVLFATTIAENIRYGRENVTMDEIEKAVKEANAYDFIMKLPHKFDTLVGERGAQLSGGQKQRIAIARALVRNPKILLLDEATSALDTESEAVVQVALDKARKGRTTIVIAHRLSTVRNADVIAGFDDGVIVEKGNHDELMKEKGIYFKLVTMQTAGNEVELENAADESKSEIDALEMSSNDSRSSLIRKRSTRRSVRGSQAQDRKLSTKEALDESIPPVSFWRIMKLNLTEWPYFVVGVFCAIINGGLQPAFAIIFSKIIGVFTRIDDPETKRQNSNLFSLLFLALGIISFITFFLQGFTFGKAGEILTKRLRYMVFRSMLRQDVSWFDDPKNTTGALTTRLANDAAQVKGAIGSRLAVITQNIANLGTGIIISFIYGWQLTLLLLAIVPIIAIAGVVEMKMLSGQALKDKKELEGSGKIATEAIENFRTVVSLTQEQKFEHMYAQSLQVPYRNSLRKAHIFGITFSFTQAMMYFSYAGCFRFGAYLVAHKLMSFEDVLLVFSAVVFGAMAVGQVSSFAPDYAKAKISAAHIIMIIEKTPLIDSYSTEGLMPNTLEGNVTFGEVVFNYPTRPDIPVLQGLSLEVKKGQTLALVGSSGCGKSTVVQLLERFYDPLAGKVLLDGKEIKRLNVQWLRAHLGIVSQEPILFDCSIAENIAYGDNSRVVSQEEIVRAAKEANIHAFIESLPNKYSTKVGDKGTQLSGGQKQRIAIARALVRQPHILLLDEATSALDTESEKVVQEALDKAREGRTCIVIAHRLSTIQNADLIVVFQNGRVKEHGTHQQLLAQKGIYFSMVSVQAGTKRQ
Structures can show the parent of a compound that is named as a salt.
value.kind: efflux ratio at 2 h, 1 µM

{"molecule": "Cc1c(Nc2c(F)ccc(NS(=O)(=O)N3C[C@@H](F)[C@@H](F)C3)c2Cl)ccc2ncn(C)c(=O)c12", "value.kind": "efflux ratio at 2 h, 1 µM", "readout.value": 2.3}
{"molecule": "Cc1c(Nc2c(F)ccc(NS(=O)(=O)N3CCOCC3)c2Cl)ccc2ncn(C)c(=O)c12", "value.kind": "efflux ratio at 2 h, 1 µM", "readout.value": 1.3}
{"molecule": "CCN(C)S(=O)(=O)Nc1cc(F)c(F)c(Nc2ccc3ncn(C)c(=O)c3c2F)c1Cl", "value.kind": "efflux ratio at 2 h, 1 µM", "readout.value": 1.6}
{"molecule": "COCC1CN(S(=O)(=O)Nc2ccc(F)c(Oc3ccc4ncn(C)c(=O)c4c3F)c2Cl)C1", "value.kind": "efflux ratio at 2 h, 1 µM", "readout.value": 1.9}
{"molecule": "CCN(C)S(=O)(=O)Nc1ccc(F)c(Nc2ccc3ncn(C)c(=O)c3c2F)c1Cl", "value.kind": "efflux ratio at 2 h, 1 µM", "readout.value": 1.6}
{"molecule": "CC[C@@H]1CCN(S(=O)(=O)Nc2ccc(F)c(Nc3ccc4ncn(C)c(=O)c4c3F)c2Cl)C1 [Example 62, trifluoroacetate]", "value.kind": "efflux ratio at 2 h, 1 µM", "readout.value": 1.6}
{"molecule": "CCN(C)S(=O)(=O)Nc1ccc(F)c(Oc2ccc3ncn(C)c(=O)c3c2C)c1Cl", "value.kind": "efflux ratio at 2 h, 1 µM", "readout.value": 0.7}
{"molecule": "CO[C@@H]1CCN(S(=O)(=O)Nc2ccc(F)c(Nc3ccc4ncn(C)c(=O)c4c3Br)c2Cl)C1 [Example 8, trifluoroacetate]", "value.kind": "efflux ratio at 2 h, 1 µM", "readout.value": 2.5}
{"molecule": "Cn1cnc2ccc(Oc3c(F)ccc(NS(=O)(=O)N4CCC(F)(F)C4)c3Cl)c(Cl)c2c1=O", "value.kind": "efflux ratio at 2 h, 1 µM", "readout.value": 2.2}
{"molecule": "Cn1cnc2ccc(Oc3c(F)ccc(NS(=O)(=O)N4CC[C@@H](OC(F)F)C4)c3Cl)c(Cl)c2c1=O", "value.kind": "efflux ratio at 2 h, 1 µM", "readout.value": 3.1}
{"molecule": "Cn1cnc2ccc(Nc3c(F)ccc(NS(=O)(=O)N4CC[C@@H](F)C4)c3Cl)c(Cl)c2c1=O", "value.kind": "efflux ratio at 2 h, 1 µM", "readout.value": 2.1}
{"molecule": "Cn1cnc2ccc(Nc3c(F)c(F)cc(NS(=O)(=O)N4CCCC4)c3F)c(Cl)c2c1=O [Example 43, trifluoroacetate]", "value.kind": "efflux ratio at 2 h, 1 µM", "readout.value": 1.8}
{"molecule": "Cn1cnc2ccc(Oc3c(F)ccc(NS(=O)(=O)N4C[C@@H](F)[C@@H](F)C4)c3Cl)c(F)c2c1=O", "value.kind": "efflux ratio at 2 h, 1 µM", "readout.value": 4.5}
{"molecule": "[2H]C([2H])([2H])O[C@@H]1CCN(S(=O)(=O)Nc2ccc(F)c(Nc3ccc4ncn(C)c(=O)c4c3C)c2Cl)C1 [Example 55, trifluoroacetate]", "value.kind": "efflux ratio at 2 h, 1 µM", "readout.value": 1.5}
{"molecule": "COCC1CN(S(=O)(=O)Nc2ccc(F)c(Nc3ccc4ncn(C)c(=O)c4c3C)c2Cl)C1", "value.kind": "efflux ratio at 2 h, 1 µM", "readout.value": 2.1}
